Each entry below carries its recorded self-cleavage.
B1: OR4K15 (parent)
chain: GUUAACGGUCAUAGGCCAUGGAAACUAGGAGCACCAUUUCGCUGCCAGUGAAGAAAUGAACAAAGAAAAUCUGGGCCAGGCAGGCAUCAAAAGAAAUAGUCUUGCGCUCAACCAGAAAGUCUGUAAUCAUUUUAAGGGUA

# Variants of: B1
# assay.info: self-cleavage, relative activity (ratio to wild type); higher = more cleavage; in vitro, sequencing; the parent is a self-cleaving ribozyme
Give only the figure.

Record A55G G106U , field self-cleavage: 0.02

Record A95G U100A , field self-cleavage: 1.26

Record A67G C88A , field self-cleavage: 1.16

Record U43C U130C , field self-cleavage: 0.47

Record C16U A82U , field self-cleavage: 0.21

Record U2C A33U , field self-cleavage: 1.24

Record U57A A118G , field self-cleavage: 1.37
